Reference source for all entries: patent US8536225B2

Test: Pharmacokinetics of plasma citrulline and arginine after single dose of IV citrulline
Type: in vivo, Duroc swine
Conditions: Duroc, pig, plasma; piglets, single dose IV citrulline 600 mg/kg; read-out: Plasma citrulline half-life (t½) (converted)
experimental-endpoint: half-life (h)
All answers are understood in h, so give the number only.

Ask | What half-life value was documented for this molecule, NC(=O)NCCC[C@H](N)C(=O)O ?
Reply | 1.5

---

Experiment: Pharmacokinetics of plasma citrulline and arginine after single dose of IV citrulline
Assay type: in vivo, Duroc swine
Settings: Duroc, pig, plasma; piglets, single dose IV citrulline 600 mg/kg; read-out: Plasma citrulline plasma clearance (CLp) (converted)
experimental-endpoint: clearance (mL/min)
All answers are understood in mL/min, so give the number only.

Ask | What clearance value was documented for this compound, NC(=O)NCCC[C@H](N)C(=O)O [Citrulline, citrulline] ?
Reply | 17.5
